target: human adenosine A1 receptor (Homo sapiens); construct: expressed in transfected cells; host or cells: HEK293 cells infected with BacMam (the same paragraph also labels the preparation CHO-hA1); experiment: Inhibition binding assay, human adenosine A1 receptor membranes, [3H]DPCPX; conditions: 1 nM [3H]DPCPX, 25° C., 1 h; IC50 converted to Ki with Cheng-Prusoff; read-out: A1 pKi (converted)
Sequence (P30542 whole entry): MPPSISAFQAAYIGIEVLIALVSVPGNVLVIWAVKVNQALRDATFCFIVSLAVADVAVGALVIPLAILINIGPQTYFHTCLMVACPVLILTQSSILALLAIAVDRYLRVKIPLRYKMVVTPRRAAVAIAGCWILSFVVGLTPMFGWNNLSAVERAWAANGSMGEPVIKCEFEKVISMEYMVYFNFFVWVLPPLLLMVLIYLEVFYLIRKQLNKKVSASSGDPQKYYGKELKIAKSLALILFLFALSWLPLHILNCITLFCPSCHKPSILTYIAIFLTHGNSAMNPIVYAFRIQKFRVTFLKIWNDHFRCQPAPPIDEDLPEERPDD
recorded endpoint: Ki

**Query** I'd like to know its Ki. The molecule in question is CCC(c1ccc(F)cn1)n1nc2c(-c3cc(C)nc(CO)c3)c(-c3ccccc3)nc(N)n2c1=O (single isomer, unassigned) [1-46 iso-1]
**Result** > 3160 nM

**Query** And for CCOc1ccccc1Cn1nc2c(-c3cc(C)nc(C)c3)c(-c3ccccc3)nc(N)n2c1=O ?
**Result** 6.31 nM

**Query** And for Cc1cc(-c2c(-c3ccccc3)nc(N)n3c(=O)n(CCN[C@@H](C)c4cccc(C)n4)nc23)cc(C)n1 ?
**Result** 398 nM

**Query** And for CCOC(=O)NCCn1nc2c(-c3cc(C)nc(C)c3)c(-c3ccccc3)nc(N)n2c1=O ?
**Result** 501 nM

**Query** And for Cc1cc(-c2c(-c3ccccc3)nc(N)n3c(=O)n(C[C@H]4CNCCO4)nc23)cc(C)n1 ?
**Result** 1000 nM

**Query** And for Cc1cc(-c2c(-c3ccccc3)nc(N)n3c(=O)n(Cc4ccc(F)c(N)n4)nc23)cc(CO)n1 ?
**Result** 126 nM

**Query** And for Cc1cc(-c2c(-c3ccc(F)cc3)nc(N)n3c(=O)n(Cc4ccc(C#N)cn4)nc23)cc(CO)n1 ?
**Result** > 3980 nM

**Query** And for Cc1cc(-c2c(-c3ccccc3)nc(N)n3c(=O)n(CCN4CCC(F)(F)CC4)nc23)cc(C)n1 ?
**Result** 631 nM

**Query** And for Cc1cc(-c2c(-c3ccccc3)nc(N)n3c(=O)n(CCN4C5CCCC4CC5)nc23)cc(C)n1 ?
**Result** 1000 nM

**Query** And for COc1cc(-c2c(-c3ccc(F)cc3)nc(N)n3c(=O)n(Cc4ccc(Cl)cn4)nc23)cc(CO)n1 ?
**Result** > 1580 nM

**Query** And for Cc1cc(-c2c(-c3ccccc3)nc(N)n3c(=O)n(CC(C)C)nc23)cc(C)[n+]1[O-] ?
**Result** 251 nM

**Query** And for Cc1cc(-c2c(-c3ccccc3)nc(N)n3c(=O)n(CCC(C)C)nc23)cc(C)n1 ?
**Result** 39.8 nM

**Query** And for COC(=O)C1(Cn2nc3c(-c4cc(C)nc(C)c4)c(-c4ccccc4)nc(N)n3c2=O)CCCC1 ?
**Result** 126 nM

**Query** And for Cc1cc(-c2c(-c3ccccc3)nc(N)n3c(=O)n(CCC(F)(F)F)nc23)cc(CO)n1 ?
**Result** 501 nM

**Query** And for Cc1cc(-c2c(-c3ccccc3)nc(N)n3c(=O)n(C(CC4COCCN4)c4ccccc4)nc23)cc(C)n1 (stereo not drawn) ?
**Result** 1000 nM
